TGI values by entry
# System: OVCAR-4 ovarian
# ASSAY PROCEDURE: NCI tumour cell line growth inhibition, 48 h

Cc1[nH]c(-c2ccccc2)c2nc(N(C)C)oc(=O)c12	> 100 µM
CC(Oc1ccccc1Cl)C(=O)NN1C(=O)CC(=O)N(c2ccc(Cl)cc2)C1=S (stereo unspecified)	> 100 µM
CC(=O)Oc1cc2cnc3c4cc(OC(C)=O)c(OC(C)=O)cc4ccc3c2cc1OC(C)=O	> 100 µM
CC(C)(C)O/N=C/c1cc(NC(=S)c2ccsc2)ccc1Cl	28.7 µM

GET /values?readout=TGI&item= COC(=O)/C=C\C(C#N)(C#N)N=Cc1ccc(OC)cc1
12.8 µM

Lookup CCCCCCCCC(O)c1ccc(/C=C\C(O)CCCC(=O)O)s1 (stereo unspecified)
> 100 µM

Lookup COC(=O)/C=C/[C@@H]1[C@H](C)N1S(=O)(=O)c1ccc(C)cc1 (stereo partly specified)
> 100 µM

Lookup CCOC(=O)[C@@H]1CSC(CC)=C(C(=O)O)N1
> 100 µM

Lookup COc1cc2c3c(n(CCCNCCCNCCCN)c(=O)c2cc1OC)-c1cc2c(cc1C3=O)OCO2
> 100 µM

Lookup CC(C)OP(=O)(O)c1ncc(-c2ccc(C(F)(F)F)cc2)c(NC2CCCCCC2)n1
> 100 µM

Lookup Cc1cc(-c2nc3c(F)cccc3s2)ccc1N
> 100 µM

###

# System: SNB-19 CNS
# ASSAY PROCEDURE: NCI tumour cell line growth inhibition, 48 h
ASSAY READOUT: TGI

# example entries with known answers
N#C/C(=C(/O)CCl)c1nc2ccccc2o1	> 100 µM
COc1ccc2c(c1OC)O/C(=C\c1ncc([N+](=O)[O-])n1C)C2=O	23.1 µM
COc1ccc(-c2cc(/C=C/C(=O)c3ccc(N)cc3)[nH]n2)cc1	11.6 µM
COc1ccc(-c2c(N)noc2-c2cc(OC)c3c(c2)OCCO3)cc1	> 100 µM
Nc1ccccc1C#Cc1ccccc1C#Cc1cccs1	> 100 µM
NC1=NCN(C2OC(CO)C(O)C2O)C(=O)N1 (stereo not given)	2220 µM
CCCCCCCCCCCCOCC1(COCCCCCCCCCCCC)COC(c2ccc(N)cc2)OC1	> 100 µM
Nc1ccccc1C(=O)N=Nc1c(O)[nH]c2ccccc12	> 100 µM
O=c1oc2c3ccc4ccccc4c3n(CCN3CCCCC3)c2c2ccccc12	> 100 µM
N#[N+]c1ccc(Nc2ccccc2)cc1	> 50 µg/mL

GET /values?readout=TGI&item= Cc1nc2ccccc2c(=O)n1/N=C(\N=Nc1cc(Cl)ccc1Cl)c1ccccc1
> 31.6 µM

Lookup C/C(C=O)=C/[C@@]1(C)O[C@@H](C)[C@@](C)(O)[C@@H]1O
> 100 µM

Lookup CC(C)(C)OC(=O)N1CCCC1C(=O)NC(c1ccccc1)c1ccccc1 (stereo not given)
> 100 µM

Lookup Cc1ccc(S(=O)(=O)N2CCSCCSCCSCCN(S(=O)(=O)c3ccc(C)cc3)CC2)cc1
> 100 µM

###

# Test system: HCC-2998 colon
# ASSAY PROCEDURE: NCI tumour cell line growth inhibition, 48 h
ASSAY READOUT: GI50

# example entries with known answers
CCn1c(-c2nonc2N)nc2cnc(Oc3cccc(NC(=O)c4ccc(N(C)C)cc4)c3)cc21	> 25 µM
CC1(C)N=C(N)N=C(N)N1c1cccc(CCc2ccccc2)c1	1.69 µM
C[C@@H]1CCc2ncc(F)cc2[C@H]2CCCN2c2ccn3ncc(c3n2)C(=O)N1	> 100 µM
CSC1=Nc2c(c(C)c(-c3ccccc3)n2COC(CO)CO)C2=NC(=O)CC(C)N12 (configuration not stated)	> 100 µM

GET /values?readout=GI50&item= COc1ccc(C(O)c2cc3c(N)c(C(=O)Nc4cccc(Br)c4C)sc3nc2C)cc1 (configuration not stated)
0.426 µM

Lookup OCC(O)C(O)C(O)C(O)c1nnc2c(-c3ccccc3)nc3ccccc3n12 (configuration not stated)
62.4 µM

Lookup Cc1cc(-c2nc3c(F)cccc3s2)ccc1N
> 100 µM

###

# Tested on: MDA-MB-231 breast
# ASSAY PROCEDURE: NCI tumour cell line growth inhibition, 48 h
TGI values by entry

C1CCCN(NC2=NCCO2)CC1	> 100 µM
O=C1CSC(c2ccccc2O)N1c1ccc(-n2c(-c3ccccc3)nc3ccccc3c2=O)cc1 (centres undefined)	37.5 µM
COc1ccc(C2C3CCc4ccccc4C3=NN2S(=O)(=O)c2cccc(C(=O)O)c2OC)cc1 (centres undefined)	> 100 µM
Cc1cc(-c2nc3c(F)cccc3s2)ccc1N	> 100 µM
C[C@@H]1CC[C@H]2[C@H](C)C(OC3O[C@@H]4O[C@@]5(C)CC[C@H]6[C@H](C)CC[C@@H]([C@@H]3C)[C@@]46O5)O[C@@H]3O[C@@]4(C)CC[C@@H]1[C@]32O4 (some centres undefined)	> 100 µM

GET /values?readout=TGI&item= CCCc1nc2c(n1CC)C(=O)c1ccccc1C2=O
> 100 µM

Lookup CC1(C)OC[C@@H]([C@@]2(COC(c3ccccc3)(c3ccccc3)c3ccccc3)CC=CC(=O)O2)O1
> 100 µM

###

log10 TGI values by entry
# Test system: DMS 114 small cell lung
# ASSAY PROCEDURE: NCI tumour cell line growth inhibition, 48 h
Values below are the log10 of the recorded TGI, with µM as the unit.

# example entries with known answers
COc1cc([C@@H]2c3cc4c(cc3[C@@H](NCc3cccc(C#N)c3)C3COC(=O)[C@@H]32)OCO4)cc(OC)c1O (stereo not given in full)	0.96
O=c1[nH]cnc2n[nH]nc12	1.75
Cc1cc(C)nc(NS(=O)(=O)c2ccc(Nc3c4ccccc4nc4c(C(=O)NCCN(C)C)cccc34)cc2)n1	1.24

GET /values?readout=log10 TGI&item= COc1ccccc1C(=O)N(Cc1ccccc1)c1ccc(Cl)c(C(=O)OC(C)C)c1
1.75

Lookup Cc1cc(Cl)ccc1NC(=O)C1C(=O)N(c2ccc(Cl)cc2C)C(=O)/C1=N\NC(N)=S (stereo not given)
1.99

Lookup COc1ccc(Br)c(C(=O)N2CCc3ccccc32)c1N
1.90

Lookup COc1ccccc1NC(=O)C1=C(C)NC(C)=C(C(=O)Nc2ccccc2OC)C1c1ccco1
0.88

###

TGI values by entry
# Tested on: KM12 colon
# ASSAY PROCEDURE: NCI tumour cell line growth inhibition, 48 h
Report as a plain number; the unit µM is understood.

COc1cc(C2S/C(=C/c3ccccc3)C(=O)N2c2cccc(NC(C)=O)c2)cc(OC)c1OC (stereo not given)	82

GET /values?readout=TGI&item= NC1=NCN(C2OC(CO)C(O)C2O)C(=O)N1 (stereo not given)
674

Lookup COc1ccc2c(c1OC)O/C(=C\c1ncc([N+](=O)[O-])n1C)C2=O
10.3

Lookup COc1cc([C@@H]2c3cc4c(cc3[C@@H](NCc3cccc(C#N)c3)C3COC(=O)[C@@H]32)OCO4)cc(OC)c1O (stereo not given in full)
4.66

###

# Tested on: HCC-2998 colon
# ASSAY PROCEDURE: NCI tumour cell line growth inhibition, 48 h; in the data active = GI50 below about 0.43 µM; inactive = the rest
Your response should consist of one outcome taken from 1 (yes) for active, 0 (no) for inactive

Before answering, review these 2 worked examples.
COCC(C(=O)OC1C/C=C/C=C/C(=O)OC(C(C)C(O)C(C)CCC(OC(=O)C(C)N(C)C)C(C)C(OC(C)=O)C(C)/C=C/N(C)C=O)C/C=C/C(OC)CC(C)C/C=C(\C)C(OC)CCC(C)C(O)C1C)N(C)C (stereo not drawn)	1 (yes)
CN1CC[C@H](c2c(O)cc(O)c3c(=O)cc(-c4ccccc4Cl)oc23)[C@H](O)C1	1 (yes)

Entry CC[C@H]1OC(=O)[C@H](C)[C@@H](O[C@H]2C[C@@](C)(OC)[C@@H](O)[C@H](C)O2)[C@H](C)[C@@H](O[C@@H]2O[C@H](C)C[C@H](N(C)C)[C@H]2O)[C@](C)(OC)C/C(C)=C2/O[C@@]1(C)C=C2C : call = ?
0 (no)

###

# System: OVCAR-3 ovarian
# ASSAY PROCEDURE: NCI tumour cell line growth inhibition, 48 h; in the data active = GI50 below about 0.43 µM; inactive = the rest
Your response should consist of one outcome taken from active, inactive

Entry O=C1Nc2ccc3c(c2/C1=C\c1cc2c(cc1Br)OCO2)OCO3 : call = ?
active

Lookup COc1ccc2c(c1OC)O/C(=C\c1ncc([N+](=O)[O-])n1C)C2=O
inactive

Lookup NCCCN=c1ccc2c3c1c(O)c1c(O)ccc(=O)c1c3[nH]n2CCNCCO
inactive

Lookup CCCCCCCCCCCCCCCC[n+]1ccccc1
active

Lookup CCOC1Oc2ccc(C)cc2C(=O)/C1=C\Nc1ccc(S(N)(=O)=O)cc1 (centres undefined)
inactive

Lookup CCCCCC[C@H]1C(=O)O[C@H](C)[C@H](NC(=O)c2cccc(NC=O)c2OC)C(=O)O[C@@H](C)[C@@H]1OC(=O)CCC (tested in a mixture with another compound)
inactive

Reference source for all entries: PubChem BioAssay (NCI)
